compounds and their reported scaled lipid accumulation score
System: primary human hepatic stellate cells (donor 1)
Experiment Notes: scaled lipid accumulation score (0 = DMSO-like, 1 = nortriptyline-like); higher = stronger HSC inactivation (lipid re-accumulation), active = hit call of the paper
Condition: library stock concentration: 1 mM; 48 h
In all, about 5,800 compounds went through this assay and about 620 (11%) showed activity. This excerpt belongs to a sample that is enriched for actives.
Measured Parameter: scaled lipid accumulation score

CCCCCC(O)CCC1C(O)CC(=O)C1CCCCCCC(=O)O (stereo not drawn) [13,14-dihydro Prostaglandin E1] ... ≤ 0 (inactive)
CCCCC[C@H](O)/C=C/[C@H]1[C@H](O)CC(=O)[C@@H]1C/C=C\CCCC(=O)O [Prostaglandin E2] ... ≤ 0 (inactive)
CCCCCCCCCCCCCCCC(=O)OC[C@H](COP(=O)([O-])OCC[N+](C)(C)C)OC(=O)CCCCCCCC(=O)/C=C/C(=O)O ... 0.026 (inactive)
CCCCC[C@H](O)/C=C/[C@@H]1[C@@H](CCCCCCC(=O)O)[C@@H](O)C[C@H]1O ... ≤ 0 (inactive)
COc1ccc2c(c1)CCC1C2CCC2(C)C(NCCCCCCN3C(=O)C=CC3=O)CCC12 (stereo not drawn) ... ≤ 0 (inactive)
FC(F)(F)c1ccc(/C=C\c2cc(Cl)cc(Cl)c2)cc1 ... ≤ 0 (inactive)
CC1=C(/C=C/C(C)=C\C=C\C(C)=C\C(=O)O)C(C)(C)CCC1 [9-cis Retinoic acid] ... ≤ -0.021 (inactive)
CCCCCCCCC=CCCCCCCCCOCCOP(=O)([O-])OCC[N+](C)(C)C ... ≤ 0 (inactive)

====

Tested on: primary human hepatic stellate cells (donor 1)
Experiment Notes: scaled lipid accumulation score (0 = DMSO-like, 1 = nortriptyline-like); higher = stronger HSC inactivation (lipid re-accumulation), active = hit call of the paper
Condition: library stock concentration: 10 mM; 48 h
Out of some 5,800 compounds screened, about 620 (11%) showed activity. The list comes from a sample in which actives are over-represented; it also holds close analogues and randomly drawn compounds.
Measured Parameter: scaled lipid accumulation score

O=C(NCCCNc1nc(Nc2cccc(CN3CCOCC3)c2)ncc1C1CC1)C1CCC1 ... 0.406 (inactive)
C[C@]1(c2nc3c(C(N)=O)cccc3[nH]2)CCCN1 [Veliparib (ABT-888)] ... ≤ 0 (inactive)
CN(C)CCCNC(=O)[C@@H]1C[C@H](CN2CCOCC2)CN(Cc2ccc3ccccc3c2)C1 ... 0.993 (active)
C[C@]1(c2nc3c(C(N)=O)cccc3[nH]2)CCCN1 [Veliparib] ... ≤ -0.0045 (inactive)
O=C(c1cncc(Br)c1)N1CCC(N2CCCC2)CC1 ... ≤ 0 (inactive)

====

compounds and their reported scaled lipid accumulation score
Test system: primary human hepatic stellate cells (donor 1)
Experiment Notes: scaled lipid accumulation score (0 = DMSO-like, 1 = nortriptyline-like); higher = stronger HSC inactivation (lipid re-accumulation), active = hit call of the paper
Condition: library stock concentration: 3.33 mM; 48 h
About 620 (11%) of roughly 5,800 compounds showed activity. Only a selection was taken, and actives are over-represented in it overall.
Measured Parameter: scaled lipid accumulation score

CC(=O)Nc1nc(C)c(-c2ccc(Cl)c(S(=O)(=O)NCCO)c2)s1 ... ≤ 0 (inactive)
COc1ccc(Cl)cc1NC(=O)Nc1cc(C)nc2ccccc12 [IGF-1R Inhibitor II] ... 0.188 (inactive)
CC(=Cc1ccc(C(=O)O)cc1)c1ccc2c(c1)C(C)(C)CCC2(C)C ... ≤ 0 (inactive)
COc1cccc(-c2cc(F)ccc2C2Cc3nc(N)nc(C)c3C(=O)N2)n1 (stereo not given) ... 0.806 (inactive)
COc1ccc(-c2cc3c(C)nc(N)nc3n([C@H]3CC[C@H](OCCO)CC3)c2=O)cn1 ... ≤ 0 (inactive)

====

Tested on: primary human hepatic stellate cells (donor 1)
Experiment Notes: scaled lipid accumulation score (0 = DMSO-like, 1 = nortriptyline-like); higher = stronger HSC inactivation (lipid re-accumulation), active = hit call of the paper
Condition: library stock concentration: 10 mM; 48 h
In all, about 5,800 compounds went through this assay and about 620 (11%) showed activity. This excerpt belongs to a sample that is enriched for actives.
Measured Parameter: scaled lipid accumulation score

CN1CCC(CNc2ccc3ncc(-c4cccc(OC(F)(F)F)c4)n3n2)CC1 ... 0.47
CN1CCC(CNc2ccc3ncc(-c4cccc(OC(F)(F)F)c4)n3n2)CC1 [SGI-1776 free base] ... 0.181
COc1cc2c(N3CCN(C(=O)Nc4ccc(OC(C)C)cc4)CC3)ncnc2cc1OCCCN1CCCCC1 ... 0.406
CC(C)Oc1ccc(C(=O)N[C@H](CNC(=O)CN(C)C)Cc2ccc(-c3cn4cccc([C@H](C)O)c4n3)cc2)cc1Cl ... 0.882

====

Tested on: primary human hepatic stellate cells (donor 1)
Experiment Notes: scaled lipid accumulation score (0 = DMSO-like, 1 = nortriptyline-like); higher = stronger HSC inactivation (lipid re-accumulation), active = hit call of the paper
Condition: library stock concentration: 3.33 mM; 48 h
Screen size: about 5,800 compounds; about 620 (11%) showed activity.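 How the source made its calls: active = score above a cut-off or among the top three wells of a plate; in these data no inactive exceeds 0.85.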 What follows is part of a selection rich in actives, with near analogues and random picks from the rest.
Outcomes: active, inactive

COc1cccc2cc(-c3nc([C@H]4CC[C@H](C(=O)O)CC4)n4ncnc(N)c34)[nH]c12 ... inactive
COc1ccc(S(=O)(=O)N(C(C)=O)c2ccccc2/C=C/c2cc[n+]([O-])cc2)cc1 ... inactive
COc1ccc(S(=O)(=O)N(CCO)c2ccccc2CN(C)C/C=C/c2ccc(Cl)cc2)cc1 [KN-93 Phosphate] ... inactive
CCc1cncnc1N1CCN(Cc2nc3ccc(C(F)(F)F)cc3[nH]2)CC1 ... inactive
CC[C@@H]1C(=O)N(C)c2cnc(Nc3ccc(C(=O)N[C@H]4CC[C@H](N5CCN(CC6CC6)CC5)CC4)cc3OC)nc2N1C(C)C ... active
CNC(=O)[C@H](Cc1c[nH]c2ccccc12)NC(=O)[C@@H](CC(=O)NO)CC(C)C ... inactive
CNC(=O)Nc1ccc(-c2nc(N3CC4CCC(C3)O4)c3cnn(C4CCC5(CC4)OCCO5)c3n2)cc1 ... inactive
O=C(Nc1cccc(Nc2nccc(Nc3cccc(C(F)(F)F)c3)n2)c1)C1CC1 ... inactive
CN(C)c1ccc(-c2nc3c(N4CCN(CC(=O)Nc5nccs5)CC4)c(Cl)cnc3[nH]2)cc1 ... active
COC(=O)Nc1ccc(-c2nc(N3CCOCC3)c3cnn(C4CCN(C(=O)OC)CC4)c3n2)cc1 ... inactive
O=C1O[C@H]([C@@H](O)CO)C([O-])=C1O.[Na+] [Sodium ascorbate] ... inactive
C[C@@H]1O[C@@H](O[C@H]2[C@H](Oc3cc(O)c(C(=O)CCc4ccc(O)cc4)c(O)c3)O[C@H](CO)[C@@H](O)[C@@H]2O)[C@H](O)[C@H](O)[C@H]1O [Naringin Dihydrochalcone] ... inactive
COc1ccc(CNCc2cccc3ccccc23)cc1 ... inactive
Cc1ccc(Sc2ccccc2N2CCNCC2)c(C)c1 ... inactive
c1cncc(CN2CCC(n3ncc4c(N5CCOCC5)nc(-c5ccc6[nH]ccc6c5)nc43)CC2)c1 ... active
O=S(=O)(c1ccccc1)c1cnc2c(N3CCNCC3)cccc2c1 ... inactive
O=[N+]([O-])c1cn2c(n1)OC[C@@H](OCc1ccc(OC(F)(F)F)cc1)C2 ... inactive

====

Tested on: primary human hepatic stellate cells (donor 1)
Experiment Notes: scaled lipid accumulation score (0 = DMSO-like, 1 = nortriptyline-like); higher = stronger HSC inactivation (lipid re-accumulation), active = hit call of the paper
Condition: library stock concentration: 3.33 mM; 48 h
Counter-ions that a name gives are not always drawn. About 620 (11%) of roughly 5,800 compounds showed activity. This excerpt belongs to a sample that is enriched for actives.
molecules and their reported scaled lipid accumulation score
Measured Parameter: scaled lipid accumulation score

NC1=NCC2c3ccccc3Cc3ccccc3N12 (centres undefined) [Epinastine HCl] ... ≤ 0 (inactive)
CCOC(=O)C1=C(N)Oc2ccc(Br)cc2C1C(C#N)C(=O)OCC (centres undefined) ... 0.391 (inactive)
O=S(=O)(c1cccc2cnccc12)N1CCCNCC1 [Fasudil (HA-1077) HCl] ... ≤ 0 (inactive)
COc1cc2nc(N3CCCN(C)CC3)nc(NC3CCN(Cc4ccccc4)CC3)c2cc1OC ... 0.42 (inactive)
COc1cc(Nc2c(C#N)cnc3cc(OCCCN4CCN(C)CC4)c(OC)cc23)c(Cl)cc1Cl [Bosutinib (SKI-606)] ... 0.374 (inactive)
CC(C)[C@H](N)C(=O)OCC(CO)OCn1cnc2c(=O)[nH]c(N)nc21 (some centres undefined) [Valganciclovir HCl] ... ≤ 0 (inactive)
O=S(=O)(c1cccc2c(I)cccc12)N1CCCNCC1 [ML-7, Hydrochloride] ... 0.25 (inactive)
Cc1cc2c(F)c(Oc3ncnn4cc(OC[C@@H](C)O)c(C)c34)ccc2[nH]1 ... 0.023 (inactive)
COc1cc(/C=C/C(=O)O)ccc1O ... ≤ 0 (inactive)
